Source of measurements: ChEMBL document CHEMBL3507680

Experiment: Human HepG2 cell viability assay in 384 well format
Format: toxicity, cell-based
Set-up: dose 125 nL, time 70.5 hour; concentration not given beside the values
Settings: HepG2 cells, read-out: Inhibition
Returns one of Y or N; Y when cytotoxicity at 70.5 h is >= -10%.

// below: answered molecules
Form field: cytotoxicity at 70.5 h at least -10%? Entry: O=C(NCc1csc(-c2cccs2)n1)C1NCCc2[nH]cnc21 (centres undefined)
N

Please tell me: is the molecule CC(=O)Nc1ccc2c(c1)nc1n2[C@@H](CNCc2ccccc2)COC1 at or over -10% in terms of cytotoxicity at 70.5 h?
N

Tell me whether cytotoxicity at 70.5 h is at least -10% here: Cc1ncsc1CCN(C)C(=O)c1ccc(Cn2cnnn2)cc1
Y

Identify whether the reported cytotoxicity at 70.5 h of the following molecule is -10% or greater: O=C(O)c1cc(S(=O)(=O)Nc2ccc(F)cc2F)cc2c1OCCO2
Y

Next:
Exam item: decide whether the reported cytotoxicity at 70.5 h for CCOc1nnc(CN2CCC(c3cc4ccccc4[nH]3)CC2)s1 is at least -10%.
Y

Please tell me: is the molecule COc1cc(OC)cc(-c2noc(CN)n2)c1 at or over -10% in terms of cytotoxicity at 70.5 h?
Y

// inclusive: cytotoxicity at 70.5 h at least -10%? input: CC1CN(C)CCN1C(=O)c1ccn(-c2cccc(F)c2)n1 (centres undefined)
N

Would you say C=C(C)CN1C(=O)CC(Cc2ccc(F)cc2)C1=O (centres undefined) shows cytotoxicity at 70.5 h at minimum -10%?
Y

Would you say O=C(Cc1ccc2c(c1)CCC2)NCCNc1cnccn1 shows cytotoxicity at 70.5 h at minimum -10%?
N

In plain terms: is recorded cytotoxicity at 70.5 h at least -10% for CN(C)C(=O)c1ccc(CNC(=O)NCCN(C)C2CCCC2)cc1 ?
N

Hi team, for Cc1nc(-c2ccc(CC(=O)N3CCNC(=O)C3)cc2)cs1 , is the recorded cytotoxicity at 70.5 h at or above -10%?
Y

API: above_or_equal(metric=cytotoxicity at 70.5 h, cutoff=-10%) for item Cc1cc(N(Cc2cccnc2)C2CC2)n2nc(C(F)(F)F)nc2n1
Y

Could you please find out whether O=C(C1CCOC1)N1CCN(CC2CC2)c2ccccc21 (centres undefined) has cytotoxicity at 70.5 h that meets -10% or exceeds it?
Y

API: above_or_equal(metric=cytotoxicity at 70.5 h, cutoff=-10%) for item CS(=O)(=O)NCc1nnc2n1CCN(Cc1nccs1)C2
Y

Could you verify whether the entry Cc1cnn(CC2CCCCN2C(=O)c2ccnc(N(C)C)c2)c1 (centres undefined) shows cytotoxicity at 70.5 h of no less than -10%?
N

====

Consider the following molecules and their measured cytotoxicity at 70.5 h readings.
Experiment: Human HepG2 cell viability assay in 384 well format
Assay type: toxicity, cell-based
Set-up: dose 125 nL, time 70.5 hour; concentration not given beside the values
Details: HepG2 cells, read-out: Inhibition
Your answer should be a plain number; it is taken to be in %.

Report cytotoxicity at 70.5 h for Cc1nnc(SC2CCc3ccccc3NC2=O)n1C (configuration not stated) please.
-23

Which cytotoxicity at 70.5 h is reported for this molecule? O=C(C1CCOC1)N1C[C@H]2CN(c3ccccc3)C(=O)[C@H]2C1 (some centres not stated)
-4.87

What value of cytotoxicity at 70.5 h has been reported for the following molecule? OCCN(Cc1ccccc1)Cc1ccsc1
-9.98

Which cytotoxicity at 70.5 h is reported for this molecule? Cc1nc(C(F)(F)F)nc(N2CCC3(CC2)CC(C(=O)O)N(C)C3)c1C (configuration not stated)
-5.6

Which value of cytotoxicity at 70.5 h has been reported for CCN1CCNC(=O)C12CCN(S(=O)(=O)c1ccccc1)CC2 in the records?
-6.26

Please report the recorded cytotoxicity at 70.5 h for Cc1ccc(C(=O)NCCS(=O)(=O)N2CCSCC2)o1 .
3.19

Look up cytotoxicity at 70.5 h for this molecule: NC(=O)CN(Cc1cccc(Oc2ccccc2)c1)C(=O)C1CC1
-4.97

I have this molecule here, CC(=O)N1CCN(C(=O)C2SCCc3sccc32)CC1 (configuration not stated) , and I need its recorded cytotoxicity at 70.5 h.
20.4

Any idea what its cytotoxicity at 70.5 h is? The molecule is O=C(CCc1cscn1)N1CCCC(c2ccn[nH]2)C1 (configuration not stated)
-8.08

Using the record for O=S(=O)(CCCc1ccccc1)Cc1nnnn1C1CC1 , report its cytotoxicity at 70.5 h.
-8.42

Continuing:
# query: cytotoxicity at 70.5 h of entry CCOCC1CN(S(=O)(=O)N(C)C)Cc2cnn(CC)c21 (configuration not stated)
-8.84

Give the measured cytotoxicity at 70.5 h of CCc1nc(CC(=O)N2CCn3c(CC)nnc3C2)cs1 .
-2.3

Data request, read-out cytotoxicity at 70.5 h, for CC(Cn1cc(Br)cn1)C(=O)Nc1ccc(Br)cn1 (configuration not stated)
3.47
